target: MDM2 (Homo sapiens, UniProt Q00987)
Sequence (Q00987 whole entry): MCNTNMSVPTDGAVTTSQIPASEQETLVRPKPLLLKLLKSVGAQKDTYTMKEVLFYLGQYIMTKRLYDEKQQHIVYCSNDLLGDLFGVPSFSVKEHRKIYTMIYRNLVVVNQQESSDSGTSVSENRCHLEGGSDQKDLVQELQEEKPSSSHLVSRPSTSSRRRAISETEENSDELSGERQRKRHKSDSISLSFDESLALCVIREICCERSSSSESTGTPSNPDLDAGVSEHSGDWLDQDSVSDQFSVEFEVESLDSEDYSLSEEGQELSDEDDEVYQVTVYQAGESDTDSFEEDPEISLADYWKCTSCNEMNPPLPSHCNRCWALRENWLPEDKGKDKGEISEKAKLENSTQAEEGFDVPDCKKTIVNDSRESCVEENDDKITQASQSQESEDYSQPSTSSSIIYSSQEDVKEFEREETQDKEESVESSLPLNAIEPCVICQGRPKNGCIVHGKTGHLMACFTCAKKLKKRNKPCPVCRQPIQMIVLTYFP
value-type: pIC50
Quick note: pIC50 means taking -log10 of the concentration in moles per liter.

compound	value-type	observed-value
COc1ncc(-c2nc3c(n2C(C)C)[C@@]2(C(=O)Nc4cc(Cl)ccc42)N(c2cc(Cl)ccc2OC)C3=O)c(OC)n1	pIC50	8.43
COc1cc(C(F)(F)F)ncc1-c1nc2c(n1C(C)C)[C@@]1(C(=O)Nc3cc(Cl)ccc31)N(c1cccc(Cl)c1)C2=O	pIC50	8.84
COc1cc(F)c(-c2nc3c(n2C(C)C)[C@@]2(C(=O)Nc4cc(Cl)ccc42)N(c2cc(Cl)ccc2C)C3=O)c(OC)c1	pIC50	8.25
COc1nc(C#N)ncc1-c1nc2c(n1C(C)C)C1(C(=O)Nc3cc(Cl)ccc31)N(c1cc(Cl)ccc1C)C2=O (stereo not drawn)	pIC50	8.37
COc1ccccc1-c1nc2c(n1C(C)C)[C@]1(C(=O)Nc3cc(Cl)ccc31)N(c1cc(Cl)c(=O)n(C)c1)C2=O	pIC50	5.42

Please examine the following record next.
State its pIC50 on MDM2 (Homo sapiens, UniProt Q00987): COc1ncc(-c2nc3c(n2C(C)C)[C@@]2(C(=O)Nc4cc(Cl)ccc42)N(c2ccc(OC)c(Cl)c2)C3=O)c(OC)n1
8.84

---

The following compounds are listed with their measured Vd values.
assay: Pharmacokinetics in ICR mice after intravenous and intragastric administration; type: in vivo; conditions: male, ICR, mouse, plasma, iv, 2 mg/kg, ICR mice, IV 2 mg/kg, mean of 3 animals; read-out: Vz
Give your result in L/kg as a bare value.

COc1cc(OC)c(-c2nc3c(n2C(C)C)[C@@]2(C(=O)Nc4cc(Cl)ccc42)N(c2cccc(Cl)c2)C3=O)cn1 0.96

Data request, read-out Vd, for COc1cc(OC(C)C)ncc1-c1nc2c(n1C(C)C)[C@@]1(C(=O)Nc3cc(Cl)ccc31)N(c1cc(Cl)ccc1C)C2=O
0.18

Data request, read-out Vd, for COc1ncc(-c2nc3c(n2C(C)C)[C@@]2(C(=O)Nc4cc(Cl)ccc42)N(c2cc(Cl)ccc2F)C3=O)c(OC)n1
1.77

Data request, read-out Vd, for COc1nc(C2CC2)ncc1-c1nc2c(n1C(C)C)[C@@]1(C(=O)Nc3cc(Cl)ccc31)N(c1cc(Cl)ccc1C)C2=O
0.56

Data request, read-out Vd, for COc1nc(C2CC2)ncc1-c1nc2c(n1C(C)C)[C@@]1(C(=O)Nc3cc(Cl)ccc31)N(c1cc(Cl)cnc1C)C2=O
1.02

---

test system: human osteosarcoma cell line SJSA-1; experiment: Inhibition of proliferation of human osteosarcoma cell line SJSA-1 (DAPI staining, In Cell Analyzer); conditions: Homo sapiens, SJSA-1, 72 h, read-out: IC50 (nM), inhibitory activity on proliferation of human osteosarcoma cell line SJSA-1, SJSA-1, incubated 72 h
Could you mark each record class 1 if its IC50 falls strictly under 700 nM, and class 0 if it equals or exceeds it?

Here are 3 compounds together with their reported answers.
COc1ncc(-c2nc3c(n2C(C)C)[C@]2(C(=O)Nc4cc(Cl)ccc42)N(c2cc(Cl)cn(C)c2=O)C3=O)c(OC)n1 class 0
COc1ncc(-c2nc3c(n2C(C)C)[C@@]2(C(=O)Nc4cc(Cl)ccc42)N(c2cc(Cl)cnc2C)C3=O)c(OC)n1 class 1
COc1ncc(-c2nc3c(n2C(C)C)[C@]2(C(=O)Nc4cc(Cl)ccc42)N(c2cc(F)cc(Cl)c2)C3=O)c(OC)n1 class 0

Moving on to the next compound.
Determine whether this compound shows IC50 lower than 700 nM (ties excluded): COc1ccc(-c2nc3c(n2C(C)C)[C@@]2(C(=O)Nc4cc(Cl)ccc42)N(c2cc(Cl)ccc2C)C3=O)cc1
class 0

---

target: MDM2 (Homo sapiens)
value-type: IC50
Remember to put the unit after the number in your answer.

molecule	IC50
COc1cc(C(C)C)ccc1-c1nc2c(n1C(C)C)[C@@]1(C(=O)Nc3cc(Cl)ccc31)N(c1cc(Cl)ccc1C)C2=O [Example S-32]	3.89 nM
COc1ccccc1-c1nc2c(n1C(C)C)[C@]1(C(=O)Nc3cc(Cl)ccc31)N(c1cc(Cl)cn(C)c1=O)C2=O [Example R-43]	130 nM

Please examine the following record next.
State its IC50 on MDM2 (Homo sapiens): COc1cc(N)c(F)cc1-c1nc2c(n1C(C)C)[C@]1(C(=O)Nc3cc(Cl)ccc31)N(c1cc(Cl)ccc1C)C2=O [Example R-75]
122 nM

---

The following compounds are listed with their measured AUC(0-t) values.
experiment: Pharmacokinetics in ICR mice after intravenous and intragastric administration; type: in vivo; details: male, ICR, mouse, plasma, po, 5 mg/kg, oral intragastric administration 5 mg/kg; read-out: AUC0-t
Give your result in ng·h/mL as a bare value.

Data request, read-out AUC(0-t), for COc1nc(OCCF)ncc1-c1nc2c(n1C(C)C)[C@@]1(C(=O)Nc3cc(Cl)ccc31)N(c1cc(Cl)ccc1C)C2=O
24200

Data request, read-out AUC(0-t), for COc1cc(OC)c(-c2nc3c(n2C(C)C)[C@@]2(C(=O)Nc4cc(Cl)ccc42)N(c2cc(Cl)ccc2F)C3=O)cn1
5440

Data request, read-out AUC(0-t), for COc1ccc(-c2nc3c(n2C(C)C)[C@@]2(C(=O)Nc4cc(Cl)ccc42)N(c2cc(Cl)ccc2C)C3=O)c(OC)c1
7330

---

assay: Pharmacokinetics in ICR mice after intravenous and intragastric administration; type: in vivo; conditions: male, ICR, mouse, plasma, iv, 2 mg/kg, ICR mice, IV 2 mg/kg, individual animal; read-out: AUC(0-t)
value-type: AUC(0-t)
Remember to put the unit after the number in your answer.

These solved cases illustrate the format of a correct answer.
COc1ncc(-c2nc3c(n2C(C)C)[C@@]2(C(=O)Nc4cc(Cl)ccc42)N(c2cc(F)cc(Cl)c2)C3=O)c(OC)n1 1790 ng·h/mL
COc1cc(OC)c(-c2nc3c(n2C(C)C)[C@@]2(C(=O)Nc4cc(Cl)ccc42)N(c2cc(Cl)ccc2F)C3=O)cn1 4600 ng·h/mL
CCOc1cc(OC)c(-c2nc3c(n2C(C)C)[C@@]2(C(=O)Nc4cc(Cl)ccc42)N(c2cc(Cl)ccc2F)C3=O)cn1 10000 ng·h/mL
COc1nc(C2CC2)ncc1-c1nc2c(n1C(C)C)[C@@]1(C(=O)Nc3cc(Cl)ccc31)N(c1cc(Cl)ccc1C)C2=O 28400 ng·h/mL
COc1ncc(-c2nc3c(n2C(C)C)[C@@]2(C(=O)Nc4cc(Cl)ccc42)N(c2cc(Cl)ccc2F)C3=O)c(OC)n1 2510 ng·h/mL
COc1cc(OC(C)C)ncc1-c1nc2c(n1C(C)C)[C@@]1(C(=O)Nc3cc(Cl)ccc31)N(c1cc(Cl)ccc1C)C2=O 53100 ng·h/mL
COc1cc(OC)c(-c2nc3c(n2C(C)C)[C@@]2(C(=O)Nc4cc(Cl)ccc42)N(c2cccc(Cl)c2)C3=O)cn1 2580 ng·h/mL
COc1cc(C(C)C)ccc1-c1nc2c(n1C(C)C)[C@@]1(C(=O)Nc3cc(Cl)ccc31)N(c1cc(Cl)ccc1C)C2=O 7200 ng·h/mL

Data request, read-out AUC(0-t), for COc1cc(OC)c(-c2nc3c(n2C(C)C)[C@@]2(C(=O)Nc4cc(Cl)ccc42)N(c2cc(Cl)cnc2C)C3=O)cn1
1260 ng·h/mL

Data request, read-out AUC(0-t), for CCOc1cc(OC)c(-c2nc3c(n2C(C)C)[C@@]2(C(=O)Nc4cc(Cl)ccc42)N(c2cc(Cl)ccc2C)C3=O)cn1
11500 ng·h/mL

Data request, read-out AUC(0-t), for COc1ccc(-c2nc3c(n2C(C)C)[C@@]2(C(=O)Nc4cc(Cl)ccc42)N(c2cc(Cl)cnc2C)C3=O)c(OC)c1
3580 ng·h/mL

---

The following compounds are listed with their measured MRT inf values.
experiment: Pharmacokinetics in ICR mice after intravenous and intragastric administration; assay type: in vivo; conditions: male, ICR, mouse, plasma, po, 5 mg/kg, ICR mice, PO 5 mg/kg, mean of 3 animals; read-out: MRT(0-∞)
Remember to put the unit after the number in your answer.

COc1cc(OC(C)C)ncc1-c1nc2c(n1C(C)C)[C@@]1(C(=O)Nc3cc(Cl)ccc31)N(c1cc(Cl)cnc1C)C2=O 2.63 h

Data request, read-out MRT inf, for CCOc1ncc(-c2nc3c(n2C(C)C)[C@@]2(C(=O)Nc4cc(Cl)ccc42)N(c2cc(Cl)cnc2C)C3=O)c(OC)n1
2.29 h

Data request, read-out MRT inf, for COc1nc(C2CC2)ncc1-c1nc2c(n1C(C)C)[C@@]1(C(=O)Nc3cc(Cl)ccc31)N(c1cc(Cl)ccc1C)C2=O
5.36 h

---

assay: Pharmacokinetics in ICR mice after intravenous and intragastric administration; format: in vivo; conditions: male, ICR, mouse, plasma, po, 5 mg/kg, PO 5 mg/kg, ICR mice, individual animal; read-out: Tmax
value-type: Tmax (h)
Give your result in h as a bare value.

molecule	unit-of-measure	Tmax
COc1ncc(-c2nc3c(n2C(C)C)[C@@]2(C(=O)Nc4cc(Cl)ccc42)N(c2cc(Cl)ccc2C)C3=O)c(OC)n1	h	2
COc1ncc(-c2nc3c(n2C(C)C)[C@H](c2ccc(Cl)cc2)N(c2cc(Cl)cn(C)c2=O)C3=O)c(OC)n1 [HDM201, reference compound]	h	0.5

Data request, read-out Tmax, for COc1ncc(-c2nc3c(n2C(C)C)[C@@]2(C(=O)Nc4cc(Cl)ccc42)N(c2cccc(Cl)c2)C3=O)c(OC)n1
1
